- SYSTEM UNDER TEST: human TRPM8 (Homo sapiens, UniProt Q7Z2W7)
- Sequence (Q7Z2W7 whole entry): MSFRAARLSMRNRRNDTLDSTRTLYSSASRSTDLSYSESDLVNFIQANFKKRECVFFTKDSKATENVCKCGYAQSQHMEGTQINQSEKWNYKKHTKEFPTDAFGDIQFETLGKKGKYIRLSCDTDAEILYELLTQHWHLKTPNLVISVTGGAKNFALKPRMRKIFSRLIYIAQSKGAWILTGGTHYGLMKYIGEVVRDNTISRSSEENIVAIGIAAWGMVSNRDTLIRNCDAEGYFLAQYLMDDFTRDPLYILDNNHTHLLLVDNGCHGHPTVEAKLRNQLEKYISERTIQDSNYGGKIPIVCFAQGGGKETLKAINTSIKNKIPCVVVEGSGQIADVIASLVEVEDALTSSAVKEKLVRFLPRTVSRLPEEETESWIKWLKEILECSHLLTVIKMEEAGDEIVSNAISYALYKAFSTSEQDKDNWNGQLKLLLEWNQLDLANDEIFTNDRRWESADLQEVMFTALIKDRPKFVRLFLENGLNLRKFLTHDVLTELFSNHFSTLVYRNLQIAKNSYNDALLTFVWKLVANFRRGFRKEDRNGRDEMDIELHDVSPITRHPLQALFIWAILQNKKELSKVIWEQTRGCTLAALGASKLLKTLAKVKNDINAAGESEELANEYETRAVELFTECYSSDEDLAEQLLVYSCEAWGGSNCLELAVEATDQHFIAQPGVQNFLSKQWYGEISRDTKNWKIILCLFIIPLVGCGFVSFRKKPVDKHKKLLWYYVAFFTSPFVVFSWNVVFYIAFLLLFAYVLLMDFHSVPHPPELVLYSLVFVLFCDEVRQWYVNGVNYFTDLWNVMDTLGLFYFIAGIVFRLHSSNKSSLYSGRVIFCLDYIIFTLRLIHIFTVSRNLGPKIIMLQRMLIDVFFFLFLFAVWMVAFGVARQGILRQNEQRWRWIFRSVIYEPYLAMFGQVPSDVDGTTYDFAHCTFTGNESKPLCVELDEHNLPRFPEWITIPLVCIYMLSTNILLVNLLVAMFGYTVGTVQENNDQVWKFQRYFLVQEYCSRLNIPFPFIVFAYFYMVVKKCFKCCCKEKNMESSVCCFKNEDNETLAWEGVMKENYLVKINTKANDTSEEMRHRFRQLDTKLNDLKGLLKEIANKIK
- ASSAY COMMENT: FLIPR calcium assay on cloned human TRPM8 channels expressed in CHO cells
- CONDITION SUMMARY: calcium signal AUC, Fluo-8, n=8; read-out: half-maximal response concentration (EC50), activation of human TRPM8
- Description: AX-8 potency was assessed using Fluorescence Imaging Plate Reader (FLIPR®) assays (study performed by ChanTest/Charles River). The in vitro effects were evaluated on cloned human TRPM8 channels expressed in CHO cells using a Fluo-8 calcium kit and a Fluorescence Imaging Plate Reader ([…]™) instrument. […]
pEC50: −log10 of the molar value.

# SMILES DATA, pEC50
data = [
    ("CC(C)OC(=O)CNC(=O)[C@@H]1C[C@H](C)CC[C@H]1C(C)C", 6.41),
]
